Entries and their measured IC50 follow.
assayed system: Polyunsaturated fatty acid 5-lipoxygenase (Rattus norvegicus)
Sequence (P12527 whole entry): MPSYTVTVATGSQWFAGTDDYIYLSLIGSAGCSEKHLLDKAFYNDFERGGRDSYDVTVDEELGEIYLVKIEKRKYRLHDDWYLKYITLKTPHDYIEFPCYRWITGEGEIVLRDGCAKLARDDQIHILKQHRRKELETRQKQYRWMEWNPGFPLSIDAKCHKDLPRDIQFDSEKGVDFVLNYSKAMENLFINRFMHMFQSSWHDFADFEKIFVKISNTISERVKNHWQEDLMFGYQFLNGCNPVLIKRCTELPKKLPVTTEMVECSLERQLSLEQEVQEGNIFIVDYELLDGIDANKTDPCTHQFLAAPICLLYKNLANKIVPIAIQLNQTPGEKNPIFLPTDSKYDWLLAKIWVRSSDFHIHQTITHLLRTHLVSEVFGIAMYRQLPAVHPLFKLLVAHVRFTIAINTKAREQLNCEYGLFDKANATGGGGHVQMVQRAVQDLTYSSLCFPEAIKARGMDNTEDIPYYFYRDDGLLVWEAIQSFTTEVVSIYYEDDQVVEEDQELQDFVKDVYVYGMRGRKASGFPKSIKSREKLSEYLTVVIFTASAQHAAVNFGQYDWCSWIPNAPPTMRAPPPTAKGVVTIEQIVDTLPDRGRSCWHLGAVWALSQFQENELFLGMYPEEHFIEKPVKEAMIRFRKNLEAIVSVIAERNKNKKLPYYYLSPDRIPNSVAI
assay protocol: Tested for inhibitory activity against 5-lipoxygenase in microsome of RBL-1 cells
Assay type: cell-based
readout kind: IC50 (nM)

- input smiles: "Cc1c(O)c(C)c2sc(NCc3ccc(S(N)(=O)=O)cc3)nc2c1C"
  result: 210
- input smiles: "CCNc1nc2c(C)c(C)c(O)c(Cc3cccnc3)c2s1"
  result: 270
- input smiles: "CNc1nc2c(Cc3cccnc3)c(C)c(O)c(C)c2s1"
  result: 230
- input smiles: "CCNc1nc2c(Cc3cccnc3)c(C)c(O)c(C)c2s1"
  result: 910

----------
Species: Homo sapiens
assay protocol: Tested for inhibitory activity against leukotriene B4 (LTB4) in human neutrophils
Assay type: functional, organism-based

- input smiles: "CCNc1nc2c(Cc3cccnc3)c(C)c(O)c(C)c2s1"
  IC50: "< 100 nM"
